- target or system: Retinoic acid receptor RXR-gamma (Homo sapiens)
- Sequence (P48443 whole entry): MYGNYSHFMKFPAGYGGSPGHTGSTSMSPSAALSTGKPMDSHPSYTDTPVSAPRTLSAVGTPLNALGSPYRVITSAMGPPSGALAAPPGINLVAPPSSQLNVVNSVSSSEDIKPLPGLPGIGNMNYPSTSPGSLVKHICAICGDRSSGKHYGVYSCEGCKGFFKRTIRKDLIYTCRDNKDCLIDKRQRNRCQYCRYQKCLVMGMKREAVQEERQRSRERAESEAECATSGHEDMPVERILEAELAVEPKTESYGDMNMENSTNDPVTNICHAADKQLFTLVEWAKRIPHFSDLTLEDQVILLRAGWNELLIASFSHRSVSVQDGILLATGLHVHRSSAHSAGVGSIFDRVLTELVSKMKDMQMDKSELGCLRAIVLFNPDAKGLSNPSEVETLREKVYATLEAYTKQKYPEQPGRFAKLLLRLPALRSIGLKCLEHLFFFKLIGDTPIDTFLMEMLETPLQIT
- method description: Inhibition of RXRgamma (unknown origin)
// EC50 lookup, one value per entry
Write it as a number; the unit nM goes unstated.

{"chem smiles": "CCN(c1ccc(C(=O)O)cc1)c1ccc(C(C)C)c(OCC(C)C)c1", "numeric readout": 3}

Consider the additional compound presented here.
Memo: `CCN(c1ccc(C(=O)O)cc1)c1ccc(C(C)C)c(OC(C)C)c1` , reported EC50: 376

* * *

- method description: Half life in ip dosed mouse brain
- Assay type: ADME, organism-based
experimental readout: half-life (h)
Write it as a number; the unit h goes unstated.

Memo: Cc1ccc(Cl)c(Nc2ccccc2C(=O)O)c1Cl [MECLOFENAMIC ACID] , reported half-life: 1.5

* * *

- target or system: Retinoic acid receptor RXR-beta (Homo sapiens)
- Sequence (P28702 whole entry): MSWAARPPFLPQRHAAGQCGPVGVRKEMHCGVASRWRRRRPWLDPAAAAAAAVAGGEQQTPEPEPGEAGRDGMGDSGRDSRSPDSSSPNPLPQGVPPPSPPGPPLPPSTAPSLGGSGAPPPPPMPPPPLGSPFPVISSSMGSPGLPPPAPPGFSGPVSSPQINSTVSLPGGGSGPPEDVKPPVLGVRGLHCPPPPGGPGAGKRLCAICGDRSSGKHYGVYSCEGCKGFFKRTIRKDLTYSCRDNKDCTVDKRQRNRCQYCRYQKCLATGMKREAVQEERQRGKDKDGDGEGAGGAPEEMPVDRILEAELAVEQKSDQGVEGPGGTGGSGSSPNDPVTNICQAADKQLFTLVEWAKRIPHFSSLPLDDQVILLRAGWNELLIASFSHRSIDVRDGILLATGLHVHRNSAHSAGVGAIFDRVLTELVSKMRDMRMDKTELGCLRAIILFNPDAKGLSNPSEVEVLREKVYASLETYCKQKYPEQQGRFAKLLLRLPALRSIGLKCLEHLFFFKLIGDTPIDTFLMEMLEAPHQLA
- method description: Inhibition of RXRbeta (unknown origin)
// pEC50 lookup, one value per entry
pEC50 field: float, defined as -log10 of concentration (mol/L).

{"chem smiles": "CCN(c1ccc(C(=O)O)cc1)c1ccc(C(C)C)c(OCC(C)C)c1", "numeric readout": 7.64}

Consider the additional molecule presented here.
Kindly note: Retinoic acid receptor RXR-beta (Homo sapiens), `CCN(c1ccc(C(=O)O)cc1)c1ccc(C(C)C)c(OC(C)C)c1` , pEC50 value reported: 7.44

* * *

- target or system: Nuclear receptor subfamily 4 group A member 2/Retinoic acid receptor RXR-alpha (Homo sapiens, UniProt P19793+P43354)
- Sequence (P19793 whole entry): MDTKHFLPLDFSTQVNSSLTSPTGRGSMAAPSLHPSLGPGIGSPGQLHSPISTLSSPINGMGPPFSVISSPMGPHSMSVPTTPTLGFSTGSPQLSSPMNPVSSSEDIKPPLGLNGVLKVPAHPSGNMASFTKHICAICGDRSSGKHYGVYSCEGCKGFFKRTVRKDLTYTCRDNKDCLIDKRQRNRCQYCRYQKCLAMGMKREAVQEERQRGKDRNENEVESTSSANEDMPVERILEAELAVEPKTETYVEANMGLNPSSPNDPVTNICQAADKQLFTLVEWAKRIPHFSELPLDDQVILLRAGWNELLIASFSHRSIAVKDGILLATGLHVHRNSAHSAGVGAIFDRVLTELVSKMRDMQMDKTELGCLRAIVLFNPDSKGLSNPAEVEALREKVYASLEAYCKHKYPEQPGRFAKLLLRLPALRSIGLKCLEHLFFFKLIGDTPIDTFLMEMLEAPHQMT
- Sequence (P43354 whole entry): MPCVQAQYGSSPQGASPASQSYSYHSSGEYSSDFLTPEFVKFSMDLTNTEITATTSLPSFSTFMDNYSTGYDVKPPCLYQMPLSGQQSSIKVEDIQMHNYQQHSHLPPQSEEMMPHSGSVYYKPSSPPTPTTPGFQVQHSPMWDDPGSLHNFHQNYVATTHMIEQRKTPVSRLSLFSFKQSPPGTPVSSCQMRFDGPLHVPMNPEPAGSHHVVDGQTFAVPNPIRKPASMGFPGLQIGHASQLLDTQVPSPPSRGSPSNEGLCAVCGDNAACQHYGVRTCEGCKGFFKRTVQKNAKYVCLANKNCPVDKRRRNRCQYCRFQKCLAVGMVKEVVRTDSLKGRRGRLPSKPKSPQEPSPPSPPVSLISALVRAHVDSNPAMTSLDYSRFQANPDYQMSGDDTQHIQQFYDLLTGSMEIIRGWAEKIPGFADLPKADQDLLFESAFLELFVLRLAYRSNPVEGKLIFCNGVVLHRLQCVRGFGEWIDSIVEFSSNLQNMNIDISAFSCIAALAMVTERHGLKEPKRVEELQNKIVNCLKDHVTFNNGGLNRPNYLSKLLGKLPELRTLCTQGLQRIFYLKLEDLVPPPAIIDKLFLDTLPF
- method description: Inhibition of Nurr1-RXRalpha (unknown origin) by BRET assay
- Type: protein-complex assay
experimental readout: EC50 (nM)
Write it as a number; the unit nM goes unstated.

Memo: `CC(C)c1cccc(-c2cc(/C=C/C(=O)O)ccc2O)c1` , reported EC50: 0.794
